The origin of these recorded values is ChEMBL document CHEMBL4033676.

# test target: Cholinesterase (Equus caballus)
# Sequence (P81908 whole entry): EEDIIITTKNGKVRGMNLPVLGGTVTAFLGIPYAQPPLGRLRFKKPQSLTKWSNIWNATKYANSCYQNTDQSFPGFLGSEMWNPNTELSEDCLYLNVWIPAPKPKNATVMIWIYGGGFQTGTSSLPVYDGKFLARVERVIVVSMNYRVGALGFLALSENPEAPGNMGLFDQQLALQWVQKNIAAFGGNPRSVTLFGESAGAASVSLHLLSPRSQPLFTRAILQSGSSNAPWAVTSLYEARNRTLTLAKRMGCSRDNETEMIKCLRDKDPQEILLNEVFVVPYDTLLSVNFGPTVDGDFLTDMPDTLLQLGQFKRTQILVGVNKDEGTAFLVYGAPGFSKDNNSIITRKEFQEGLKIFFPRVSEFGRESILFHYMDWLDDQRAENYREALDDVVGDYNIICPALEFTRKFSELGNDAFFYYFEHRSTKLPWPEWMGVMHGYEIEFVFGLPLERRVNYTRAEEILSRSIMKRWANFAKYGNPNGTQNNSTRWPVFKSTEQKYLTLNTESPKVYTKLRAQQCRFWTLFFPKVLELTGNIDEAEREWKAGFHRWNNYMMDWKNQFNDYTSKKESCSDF
# experiment: Inhibition of equine serum BuChE using butyrylthiocholine chloride as substrate after 15 mins by Ellman's method
Entries and their measured pIC50 follow.
Note on pIC50: it is the negative log10 of concentration, concentration in mol/L.

# line notation, test target, pIC50
data = [
    ("O=C1CCc2ccc(OCCCCCCN3CCCCC3)cc2N1", "Cholinesterase (Equus caballus)", 4.85),
    ("O=C1CCc2ccc(OCCCCCN3CCN(Cc4ccccc4)CC3)cc2N1", "Cholinesterase (Equus caballus)", 4.90),
    ("O=C1CCc2ccc(OCCCCCN3CCN(c4ccccn4)CC3)cc2N1", "Cholinesterase (Equus caballus)", 5.21),
    ("CC(C)N1CCN(CCCOc2ccc3c(c2)NC(=O)CC3)CC1", "Cholinesterase (Equus caballus)", 4.70),
    ("CCN(CC)CCCCCCOc1ccc2c(c1)NC(=O)CC2", "Cholinesterase (Equus caballus)", 4.53),
    ("CC(C)N1CCN(CCCCCOc2ccc3c(c2)NC(=O)CC3)CC1", "Cholinesterase (Equus caballus)", 5.49),
]

Incoming: API: value(readout=pIC50, system=Cholinesterase (Equus caballus)) for record `CCN(CC)CCCOc1ccc2c(c1)NC(=O)CC2`
Outgoing: 4.53

Incoming: Also check `O=C1CCc2ccc(OCCCCN3CCN(c4ccccn4)CC3)cc2N1`
Outgoing: 5.08

Incoming: Quick one: `O=C1CCc2ccc(OCCCCN3CCc4ccccc4C3)cc2N1`
Outgoing: 5.42

Incoming: Same question, `O=C1CCc2ccc(OCCCCCN3CCc4ccccc4C3)cc2N1` this time
Outgoing: 6.05

###

# test target: Acetylcholinesterase (Electrophorus electricus, UniProt O42275)
# Sequence (O42275 whole entry): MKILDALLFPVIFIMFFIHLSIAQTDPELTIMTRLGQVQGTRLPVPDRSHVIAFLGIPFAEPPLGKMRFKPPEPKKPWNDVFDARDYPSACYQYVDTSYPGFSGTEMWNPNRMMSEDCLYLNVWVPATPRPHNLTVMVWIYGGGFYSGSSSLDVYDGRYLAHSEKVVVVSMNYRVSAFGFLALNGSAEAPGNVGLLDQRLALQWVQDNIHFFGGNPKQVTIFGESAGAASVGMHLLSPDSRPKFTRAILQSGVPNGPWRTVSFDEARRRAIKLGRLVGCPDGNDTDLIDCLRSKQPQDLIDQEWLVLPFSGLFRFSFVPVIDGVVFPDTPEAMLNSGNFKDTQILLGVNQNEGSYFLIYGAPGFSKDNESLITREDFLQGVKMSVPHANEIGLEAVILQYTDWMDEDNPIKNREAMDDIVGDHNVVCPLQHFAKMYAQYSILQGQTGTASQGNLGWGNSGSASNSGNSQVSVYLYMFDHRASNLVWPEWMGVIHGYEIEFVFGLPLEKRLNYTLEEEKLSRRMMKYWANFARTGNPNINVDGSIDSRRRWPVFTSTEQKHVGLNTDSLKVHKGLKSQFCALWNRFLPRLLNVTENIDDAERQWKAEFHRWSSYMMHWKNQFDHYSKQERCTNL
Measured pIC50, listed per entry.
pIC50 is a log-scale quantity: -log10 of the concentration expressed in molar.

# line notation, test target, pIC50
data = [
    ("O=C1CCc2ccc(OCCCCN3CCCCC3)cc2N1", "Acetylcholinesterase (Electrophorus electricus, UniProt O42275)", 4.93),
]

Incoming: Form field: reported pIC50 of `O=C1CCc2ccc(OCCCCCCN3CCc4ccccc4C3)cc2N1`
Outgoing: 5.09

Incoming: Let us now turn to `O=C1CCc2ccc(OCCCN3CCCCC3)cc2N1`
Outgoing: 4.91

###

# test target: Amine oxidase [flavin-containing] B (Homo sapiens)
# experiment: biochemical
# Assay type: cell-based
# Description: Inhibition of recombinant human MAO-B expressed in baculovirus infected BTI insect cells using kynuramine as substrate after 30 mins by fluorescence assay
metric name: IC50 (µM)
Unit µM implied. Number only.

Use the examples below as a reference point.
# line notation, test target, result
rows = [
    ("O=C1CCc2ccc(OCCCCCCN3CCN(Cc4ccccc4)CC3)cc2N1", "Amine oxidase [flavin-containing] B (Homo sapiens)", 4.3),
    ("CCN(CC)CCCCOc1ccc2c(c1)NC(=O)CC2", "Amine oxidase [flavin-containing] B (Homo sapiens)", 4),
]

Incoming: Which IC50 value belongs to `O=C1CCc2ccc(OCCCCCN3CCN(Cc4ccccc4)CC3)cc2N1` ?
Outgoing: 6.5

Incoming: Next compound up: `O=C1CCc2ccc(OCCCCCCN3CCC(N4CCCC4)CC3)cc2N1`
Outgoing: 18.3

Incoming: Also `O=C1CCc2ccc(OCCCCN3CCN(Cc4ccccc4)CC3)cc2N1` ?
Outgoing: 9.4

###

Item-by-item account of pIC50
# test target: Amine oxidase [flavin-containing] B (Homo sapiens, UniProt P27338)
# Sequence (P27338 whole entry): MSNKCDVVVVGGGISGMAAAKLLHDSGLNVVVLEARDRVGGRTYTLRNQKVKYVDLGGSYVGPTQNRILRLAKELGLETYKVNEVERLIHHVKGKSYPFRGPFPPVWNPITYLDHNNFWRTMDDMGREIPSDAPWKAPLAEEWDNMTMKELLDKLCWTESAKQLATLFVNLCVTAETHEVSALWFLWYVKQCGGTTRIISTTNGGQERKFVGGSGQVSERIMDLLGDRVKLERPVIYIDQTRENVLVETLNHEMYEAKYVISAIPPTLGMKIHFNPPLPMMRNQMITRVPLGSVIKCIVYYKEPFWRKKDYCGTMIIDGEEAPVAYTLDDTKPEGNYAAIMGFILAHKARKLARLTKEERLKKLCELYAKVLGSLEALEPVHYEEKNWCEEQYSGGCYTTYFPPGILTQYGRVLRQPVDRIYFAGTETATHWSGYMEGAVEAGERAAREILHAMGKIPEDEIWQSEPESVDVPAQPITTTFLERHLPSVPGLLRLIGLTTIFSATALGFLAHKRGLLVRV
# experiment: biochemical
The value called pIC50 is obtained by taking minus log10 of the concentration in mol/L.

Example entries begin here.
# line notation, test target, pIC50
measured = [
    ("O=C1CCc2ccc(OCCCCN3CCCCC3)cc2N1", "Amine oxidase [flavin-containing] B (Homo sapiens, UniProt P27338)", 5.19),
    ("CC(C)N1CCN(CCCCCCOc2ccc3c(c2)NC(=O)CC3)CC1", "Amine oxidase [flavin-containing] B (Homo sapiens, UniProt P27338)", 4.60),
]

Incoming: Data request, read-out pIC50, for `CC(C)N1CCN(CCCCOc2ccc3c(c2)NC(=O)CC3)CC1`
Outgoing: 5.12
